Listed compounds paired with reported IC50
Assay System: CDK2/Cyclin E1 (Homo sapiens, UniProt P24941)
Assay Text: CDK2/Cyclin E1 Caliper LabChip EZ Reader mobility shift assay
Format: biochemical
Parameters: purchased Eurofins 14-475
Assay Setup: read-out: Caliper Assay (CDK2/CCNE1): IC50
Parameter Measured: IC50

Compound | Result
C[C@@H](OCC1CCCCC1)[C@H](NC(=O)[C@@H]1CN(C(=O)c2cncs2)CC12CN(C(=O)[C@H]1CC1(C)C)C2)C(=O)N1CCC(c2cnc[nH]2)CC1 | ≤ 10 nM
CNC(=O)[C@H](COCc1ccccc1)NC(=O)[C@@H]1CN(C(=O)c2cnn(Cc3ccccc3)c2)CC12CN(C(=O)C1(C(F)(F)F)CC1)C2 [I-113A] | 1000 to 10000 nM
CNC(=O)[C@@H](NC(=O)[C@@H]1CN(C(=O)c2cnn(Cc3ccccc3)c2)CC12CN(C(=O)c1ccccc1)C2)[C@@H](C)OCc1ccccc1 [I-26A] | 1000 to 10000 nM
C[C@@H](OCC1CCC(F)(F)CC1)[C@H](NC(=O)[C@@H]1CN(C(=O)c2cncs2)CC12CN(C(=O)[C@H]1CC1(C)C)C2)C(=O)N1CCC[C@H](COC(F)(F)F)C1 | ≤ 10 nM
CNC(=O)[C@@H](NC(=O)[C@@H]1CN(C(=O)c2cncs2)CC12CN(C(=O)[C@H]1CC1(C)C)C2)[C@@H](C)OCC12CCC(CC1)CC2 | ≤ 10 nM
CC1(C)C[C@@H]1C(=O)N1CC2(CN(C(=O)c3cnn(Cc4ccccc4)c3)C[C@H]2C(=O)N2CCN(CC3CCCCC3)CC2)C1 | 100 to 1000 nM
CNC(=O)[C@@H](NC(=O)[C@@H]1CN(Cc2ccncc2)CC12CN(C(=O)[C@H]1CC1(C)C)C2)[C@@H](C)OCc1ccccc1 [I-55A] | > 10000 nM
[2H]C([2H])([2H])OC[C@H]1CCCN(C(=O)[C@@H](NC(=O)[C@@H]2CN(C(=O)c3cncs3)CC23CN(C(=O)C(C)(C)C2CC2)C3)[C@@H](C)OCC23CCC(CC2)OC3)C1 | 10 to 100 nM
CNC(=O)C(NC(=O)[C@@H]1CN(C(=O)c2cncs2)CC12CN(C(=O)[C@H]1CC1(C)C)C2)c1cccc(N2CC3(CC(C(F)(F)F)C3)C2)n1 (some centres unmarked) | 100 to 1000 nM
C[C@@H](OCC12CCC(CC1)OC2)[C@H](NC(=O)[C@@H]1CN(C(=O)c2cncs2)CC12CN(C(=O)[C@H]1CC1(C)C)C2)C(=O)N1CCCC2(COC2)C1 | ≤ 10 nM
C[C@@H](OCC12CCC(CC1)OC2)[C@H](NC(=O)[C@@H]1CN(C(=O)c2cncs2)CC12CN(C(=O)[C@H]1CC1(C)C)C2)C(=O)N1CCC2(CC1)CC2 | ≤ 10 nM
CNC(=O)[C@@H](NC(=O)[C@H]1CN(C(=O)c2cnn(Cc3ccccc3)c2)CC12CN(C(=O)CC(C)C)C2)[C@@H](C)OCc1ccccc1 [I-69B] | > 10000 nM
CNC(=O)[C@@H](NC(=O)[C@@H]1CN(C(=O)c2cncs2)CC12CN(C(=O)[C@H]1CC1(C)C)C2)[C@@H](C)OCC1CC2CCC1O2 (some centres unmarked) | 100 to 1000 nM
CNC(=O)[C@@H](NC(=O)[C@@H]1CN(C(=O)Cc2cn[nH]c2)CC12CN(C(=O)[C@H]1CC1(C)C)C2)[C@@H](C)OCc1ccccc1 | > 10000 nM
CC(C)O[C@H]1C[C@@H](NC(=O)[C@@H]2CN(C(=O)c3cnn(Cc4ccccc4)c3)CC23CN(C(=O)[C@H]2CC2(C)C)C3)C1 | > 10000 nM
C[C@@H](OCC1CCCCC1)[C@H](NC(=O)[C@@H]1CN(C(=O)c2cnn(Cc3ccccc3)c2)CC12CN(C(=O)[C@H]1CC1(C)C)C2)C(=O)N1CCC(n2cccn2)CC1 | ≤ 10 nM
C[C@@H](OCC1CCCCC1)[C@H](NC(=O)[C@@H]1CN(C(=O)c2cnn(Cc3ccccc3)c2)CC12CN(C(=O)[C@H]1CC1(C)C)C2)C(=O)NCCC(=O)OC(C)(C)C | ≤ 10 nM
CNC(=O)[C@@H](NC(=O)[C@@H]1CN(C(=O)c2cnn(Cc3ccccc3)c2)CC12CN(C(=O)[C@H]1CC1(C)C)C2)[C@@H](C)OC[C@H]1CC[C@H](O)CC1 | 100 to 1000 nM
CNC(=O)[C@H](CS(=O)(=O)Cc1ccccc1)NC(=O)[C@@H]1CN(C(=O)c2cnn(Cc3ccccc3)c2)CC12CN(C(=O)[C@H]1CC1(C)C)C2 | 1000 to 10000 nM
CNC(=O)[C@@H](NC(=O)[C@@H]1CN(C(=O)Nc2cnn(Cc3ccccc3)c2)CC12CN(C(=O)[C@H]1CC1(C)C)C2)[C@@H](C)OCc1ccccc1 [I-48A] | > 10000 nM
CNC(=O)[C@@H](NC(=O)[C@@H]1CN(C(=O)c2cnc(C3CC3)s2)CC12CN(C(=O)[C@H]1CC1(C)C)C2)[C@@H](C)OCC1CCCCC1 [I-178A] | 100 to 1000 nM
CO[C@H]1COCC[C@H]1NC(=O)[C@H]1CN(C(=O)c2cnn(Cc3ccccc3)c2)CC12CN(C(=O)[C@H]1CC1(C)C)C2 [I-134B] | > 10000 nM
CCCC(=O)N1CC2(C1)CN(C(=O)c1cnn(Cc3ccccc3)c1)C[C@@H]2C(=O)N[C@H](C(=O)NC)[C@@H](C)OCc1ccccc1 [I-60B] | > 10000 nM

* * *

Listed molecules paired with reported pIC50
Assay System: CDK2/Cyclin E1 (Homo sapiens, UniProt P24941)
Assay Text: CDK2/Cyclin E1 Caliper LabChip EZ Reader mobility shift assay
Type: biochemical
Set-up: purchased Eurofins 14-475
Assay Setup: read-out: Caliper Assay (CDK2/CCNE1): IC50
pIC50: −log10 of the molar value.
Parameter Measured: pIC50

Molecule | Assay System | Parameter Measured | Result
CNC(=O)[C@@H](NC(=O)[C@H]1CN(C(=O)c2cnn(C)c2)CC12CN(C(=O)[C@H]1CC1(C)C)C2)[C@@H](C)OCc1ccccc1 [I-33B] | CDK2/Cyclin E1 (Homo sapiens, UniProt P24941) | pIC50 | < 5.00
C[C@@H](OCC1CCCCC1)[C@@H](CO)NC(=O)[C@@H]1CN(C(=O)c2cnn(Cc3ccccc3)c2)CC12CN(C(=O)[C@H]1CC1(C)C)C2 [I-135A] | CDK2/Cyclin E1 (Homo sapiens, UniProt P24941) | pIC50 | 7.00 to 8.00
CNC(=O)[C@@H](NC(=O)[C@@H]1CN(C(=O)c2cnn(Cc3ccccc3)c2)CC12CN(C(=O)C1C(C)(C)C1(C)C)C2)[C@@H](C)OCc1ccccc1 [I-89A] | CDK2/Cyclin E1 (Homo sapiens, UniProt P24941) | pIC50 | 5.00 to 6.00
CNC(=O)[C@@H](NC(=O)[C@@H]1CN(C(=O)c2cnn(Cc3ccccc3)c2)CC12CN(C(=O)[C@H]1CC1(C)C)C2)[C@@H](C)OCC(C)(C)C [I-130A] | CDK2/Cyclin E1 (Homo sapiens, UniProt P24941) | pIC50 | 7.00 to 8.00
CNC(=O)[C@@H](NC(=O)[C@H]1CN(S(=O)(=O)c2cnn(Cc3ccccc3)c2)CC12CN(C(=O)[C@H]1CC1(C)C)C2)[C@@H](C)OCc1ccccc1 [I-79B] | CDK2/Cyclin E1 (Homo sapiens, UniProt P24941) | pIC50 | < 5.00
CC1(C)C[C@@H]1C(=O)N1CC2(CN(C(=O)c3cnn(Cc4ccccc4)c3)C[C@@H]2C(=O)Nc2cccc(-c3ccccc3)c2)C1 [I-63B] | CDK2/Cyclin E1 (Homo sapiens, UniProt P24941) | pIC50 | 5.00 to 6.00
C[C@@H](OCC12CCC(CC1)OC2)[C@H](NC(=O)[C@@H]1CN(C(=O)c2cnco2)CC12CN(C(=O)C(C)(C)C1CC1)C2)C(C)(C)O [I-448] | CDK2/Cyclin E1 (Homo sapiens, UniProt P24941) | pIC50 | 5.00 to 6.00
C[C@@H](OCC1CCCCC1)[C@H](NC(=O)[C@@H]1CN(C(=O)c2cnn(Cc3ccccc3)c2)CC12CN(C(=O)[C@H]1CC1(C)C)C2)C(=O)N1CC(CN)C1 [I-239] | CDK2/Cyclin E1 (Homo sapiens, UniProt P24941) | pIC50 | ≥ 8.00
C[C@@H](OCC1CCCCC1)[C@H](NC(=O)C1CN(C(=O)c2cncs2)CC12CN(C(=O)[C@H]1CC1(C)C)C2)C(=O)N1CCOCC1 (some centres unmarked) [I-138] | CDK2/Cyclin E1 (Homo sapiens, UniProt P24941) | pIC50 | ≥ 8.00
C[C@H](OC1CCN(C(=O)[C@@H]2CN(C(=O)c3cnn(Cc4ccccc4)c3)CC23CN(C(=O)[C@H]2CC2(C)C)C3)CC1)c1ccccc1 [I-275] | CDK2/Cyclin E1 (Homo sapiens, UniProt P24941) | pIC50 | 6.00 to 7.00
C[C@@H](OCC1CCCCC1)[C@H](NC(=O)[C@@H]1CN(C(=O)c2cnn(C(F)(F)F)c2)CC12CN(C(=O)[C@H]1CC1(C)C)C2)C(=O)N1CCCCC1 [I-115] | CDK2/Cyclin E1 (Homo sapiens, UniProt P24941) | pIC50 | 6.00 to 7.00
C[C@@H](OCC1CCC(F)(F)CC1)[C@H](NC(=O)[C@H]1CN(C(=O)c2cnn(Cc3ccc(F)cc3)c2)CC12CN(C(=O)[C@H]1CC1(C)C)C2)C(=O)N1CCC(F)(F)CC1 [I-164B] | CDK2/Cyclin E1 (Homo sapiens, UniProt P24941) | pIC50 | 7.00 to 8.00
CNC(=O)[C@@H](NC(=O)[C@@H]1CN(C(=O)c2scnc2C(F)(F)F)CC12CN(C(=O)[C@H]1CC1(C)C)C2)[C@@H](C)OCC1CCCCC1 [I-163A] | CDK2/Cyclin E1 (Homo sapiens, UniProt P24941) | pIC50 | < 5.00
C[C@@H](OCC1CCCCC1)[C@H](NC(=O)[C@@H]1CN(C(=O)c2cnn(Cc3ccccc3)c2)CC12CN(C(=O)[C@H]1CC1(C)C)C2)C(=O)N1CCC[C@@H](N)C1 [I-218] | CDK2/Cyclin E1 (Homo sapiens, UniProt P24941) | pIC50 | ≥ 8.00
CC1(C)C[C@@H]1C(=O)N1CC2(CN(C(=O)c3cnn(Cc4ccccc4)c3)C[C@@H]2C(=O)N[C@H]2CCCN(C(=O)c3ccccc3)C2)C1 [I-83B] | CDK2/Cyclin E1 (Homo sapiens, UniProt P24941) | pIC50 | < 5.00
C[C@@H](OCC1CCCCC1)[C@H](NC(=O)[C@@H]1CN(C(=O)c2cnn(Cc3ccccc3)c2)CC12CN(C(=O)[C@H]1CC1(C)C)C2)C(=O)N1CCC(c2nccs2)CC1 [I-445] | CDK2/Cyclin E1 (Homo sapiens, UniProt P24941) | pIC50 | ≥ 8.00
CNC(=O)[C@@H](NC(=O)[C@@]1(C)CN(C(=O)c2cnn(Cc3ccccc3)c2)CC12CN(C(=O)[C@H]1CC1(C)C)C2)[C@@H](C)OCC1CCCCC1 [I-499B] | CDK2/Cyclin E1 (Homo sapiens, UniProt P24941) | pIC50 | < 5.00
C[C@@H](OCC1(C(F)(F)F)CC1)[C@H](NC(=O)[C@@H]1CN(C(=O)c2cncs2)CC12CN(C(=O)[C@H]1CC1(C)C)C2)C(=O)N1CCCCC1 [I-285] | CDK2/Cyclin E1 (Homo sapiens, UniProt P24941) | pIC50 | 6.00 to 7.00
COC(=O)C1(NC(=O)[C@@H]2CN(C(=O)c3cnn(Cc4ccccc4)c3)CC23CN(C(=O)[C@H]2CC2(C)C)C3)COC1 [I-142B] | CDK2/Cyclin E1 (Homo sapiens, UniProt P24941) | pIC50 | < 5.00
CNC(=O)[C@@H](NC(=O)[C@H]1CN(C(=O)c2cnn(Cc3ccccc3)c2)CC12CN(C(=O)CC1CC1)C2)[C@@H](C)OCC1CCCCC1 [I-56B] | CDK2/Cyclin E1 (Homo sapiens, UniProt P24941) | pIC50 | 5.00 to 6.00
CNC(=O)[C@@H](NC(=O)[C@@H]1CN(C(=O)c2c[nH]c3ccccc23)CC12CN(C(=O)[C@H]1CC1(C)C)C2)[C@@H](C)OCc1ccccc1 [I-72A] | CDK2/Cyclin E1 (Homo sapiens, UniProt P24941) | pIC50 | < 5.00
CNC(=O)[C@@H](NC(=O)[C@H]1CN(C(=O)c2cnn(Cc3ccccc3)c2)CC12CN(C(=O)C1(C3CC3)CC1)C2)[C@@H](C)OCc1ccccc1 [I-114B] | CDK2/Cyclin E1 (Homo sapiens, UniProt P24941) | pIC50 | < 5.00
CNC(=O)[C@@H](NC(=O)[C@@H]1CN(C(=O)c2ccncc2)CC12CN(C(=O)[C@H]1CC1(C)C)C2)[C@@H](C)OCc1ccccc1 [I-46A] | CDK2/Cyclin E1 (Homo sapiens, UniProt P24941) | pIC50 | < 5.00

Sourced from patent US20240174680A1
